Test system: NCM-460 cells
method.notes: MTS cell viability assay, NCM-460 cells
Format: cell-based
conditions.used: Homo sapiens, NCM460; incubation time 72 hours
reported.metric: IC50 (µM)
# output: bare number, implied unit µM

# input compound: CC1(C)CCC2=C(O1)c1ccccc1C(=O)C2=O [β-lapachone, reference compound] ; wanted: its IC50
3.25

###

Test system: DLD-1 cells
method.notes: MTS cell viability assay, DLD-1 cells
Format: cell-based
conditions.used: Homo sapiens, DLD-1; incubation time 72 hours
reported.metric: IC50
Quick note: number first, unit second.

Look at this molecule and give its reported IC50. CC1(C)CCC2=C(O1)c1ccccc1C(=O)C2=O [β-lapachone, reference compound]
1710 nM
